These data points were gathered from ChEMBL document CHEMBL1136108.

Exercise: state measured Activity for each of the compounds provided.
- SYSTEM TESTED: Peroxisome proliferator-activated receptor gamma (Homo sapiens) (UniProt P37231)
- Sequence (P37231 whole entry, the tested form may be a part): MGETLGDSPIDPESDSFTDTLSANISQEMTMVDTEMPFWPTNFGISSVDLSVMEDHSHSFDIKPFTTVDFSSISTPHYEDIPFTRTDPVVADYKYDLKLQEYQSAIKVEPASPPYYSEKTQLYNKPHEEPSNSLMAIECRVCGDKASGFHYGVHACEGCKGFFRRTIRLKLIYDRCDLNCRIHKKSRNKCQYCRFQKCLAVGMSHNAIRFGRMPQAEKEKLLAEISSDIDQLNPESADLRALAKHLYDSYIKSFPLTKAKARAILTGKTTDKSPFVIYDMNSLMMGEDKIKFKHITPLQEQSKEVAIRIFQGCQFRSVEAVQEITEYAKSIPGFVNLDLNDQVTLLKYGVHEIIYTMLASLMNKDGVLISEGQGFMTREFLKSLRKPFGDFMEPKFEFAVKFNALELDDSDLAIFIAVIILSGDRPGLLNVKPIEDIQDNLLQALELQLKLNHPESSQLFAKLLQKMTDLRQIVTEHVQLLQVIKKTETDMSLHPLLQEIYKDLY
- MEASUREMENT PROTOCOL: Agonist activity determined in peroxisome proliferator activated receptor gamma using PPAR gamma-Gal4 Luciferase cotransfection assay
- Type: functional

Request: Activity for O=C(O)Cc1ccccc1OCCC1Oc2cc(F)ccc2N(Cc2ccc(Cl)cc2)C1=O (stereo not given) ?
Response: > 5 µM

Request: Activity for O=C(O)c1ccccc1OCCC1Oc2ccccc2N(Cc2ccc(Cl)cc2)C1=O (stereo not given) ?
Response: > 5 µM

Request: Activity for O=C(O)Cc1ccccc1OCCC1Oc2ccccc2N(Cc2ccccc2)C1=O (stereo not given) ?
Response: > 5 µM

Request: Activity for O=C(O)Cc1ccccc1OCCC1Oc2ccccc2N(Cc2ccc(Cl)cc2)C1=O (stereo not given) ?
Response: 1.3 µM

Request: Activity for O=C(O)Cc1cccc(OCCC2Oc3ccccc3N(Cc3cccc(Cl)c3)C2=O)c1 (stereo not given) ?
Response: > 5 µM
